Origin of measurements: patent US20080051457A1

Assay: logP (pH2.3), physical properties of Tables 1 to 3
Type: physicochemical
Conditions: Table 1
Readout: Physical properties: logP

>>> reported_value("CCc1cc(C(F)(C(F)(F)F)C(F)(F)F)ccc1NC(=O)c1cccc(Br)c1C(=O)N[C@@H](C)CS(C)(=O)=O")
3.31
>>> reported_value("CSC[C@H](C)NC(=O)c1c(I)cccc1C(=O)Nc1ccc(C(F)(F)C(F)(F)F)c(F)c1C")
4.03
>>> reported_value("CCS(=O)(=O)C[C@H](C)NC(=O)c1c(Br)cccc1C(=O)Nc1ccc(C(F)(C(F)(F)F)C(F)(F)F)c(F)c1C")
3.39
>>> reported_value("CC[S+]([O-])C[C@H](C)NC(=O)c1c(Br)cccc1C(=O)Nc1ccc(C(F)(C(F)(F)F)C(F)(F)F)c(F)c1C (stereo partly shown)")
2.90
>>> reported_value("CCS(=O)(=O)C[C@H](C)NC(=O)c1c(I)cccc1C(=O)Nc1ccc(C(F)(C(F)(F)F)C(F)(F)F)c(F)c1C")
3.47
>>> reported_value("CC[S+]([O-])C[C@H](C)NC(=O)c1c(Cl)cccc1C(=O)Nc1ccc(C(F)(C(F)(F)F)C(F)(F)F)c(F)c1C (stereo partly shown)")
2.86
>>> reported_value("CCSC[C@H](C)NC(=O)c1c(I)cccc1C(=O)Nc1cc(F)c(OC(F)(F)F)cc1Cl")
4.26
